Origin of measurements: ChEMBL document CHEMBL4130363

system: 5-hydroxytryptamine receptor 4 (Homo sapiens)
assay-details: Antagonist activity at recombinant human 5-HT4E assessed as inhibition of agonist-induced cAMP levels at 10 uM by HTRF assay
Assay type: functional
measurement-kind: inhibition (%)

- COc1cccc(C(=O)NCCCN(C)Cc2ccccc2)c1: 12
- CCCc1ccc(C(=O)NCCCN(C)Cc2ccccc2)cc1: 0
- CN(CCCNC(=O)c1ccc(Br)cc1)Cc1ccccc1: -5
- COc1ccc(C(=O)NCCCN(C)Cc2ccccc2)cc1: 8
- CN(CCNC(=O)c1ccc([N+](=O)[O-])cc1)Cc1ccccc1: 2
- CN(CCCNC(=O)c1ccc(C(F)(F)F)cc1)Cc1ccccc1: -9
